Cited source: ChEMBL document CHEMBL6121008

- assay-text: Cytotoxicity against mouse L929 cells assessed as inhibition of cell viability incubated for 96 hrs by MTT assay
- Assay type: toxicity, cell-based
observed-property: CC50 at 96 h (µM)
Answer format: numeric, µM implied, no suffix.

[
  {
    "compound-string": "C/C(=N\\N=c1\\scc(-c2ccc([N+](=O)[O-])cc2)n1-c1ccccc1)c1cccnc1",
    "CC50 at 96 h, µM": 25.8
  },
  {
    "compound-string": "COc1ccc(-c2cs/c(=N/N=C(\\C)c3cccnc3)n2-c2ccccc2)cc1",
    "CC50 at 96 h, µM": 5.2
  },
  {
    "compound-string": "C/C(=N\\N=c1\\scc(-c2ccc(F)cc2)n1C)c1cccnc1",
    "CC50 at 96 h, µM": 15.6
  }
]

# CC50 at 96 h lookup, item C/C(=N\N=c1\scc(-c2cccc([N+](=O)[O-])c2)n1-c1ccccc1)c1cccnc1
18.3

# CC50 at 96 h lookup, item C/C(=N\N=c1\scc(-c2cccc([N+](=O)[O-])c2)n1C)c1cccnc1
13.3
